Biological target: hGLP-1R (Homo sapiens, UniProt P43220)
Sequence (P43220 24-463): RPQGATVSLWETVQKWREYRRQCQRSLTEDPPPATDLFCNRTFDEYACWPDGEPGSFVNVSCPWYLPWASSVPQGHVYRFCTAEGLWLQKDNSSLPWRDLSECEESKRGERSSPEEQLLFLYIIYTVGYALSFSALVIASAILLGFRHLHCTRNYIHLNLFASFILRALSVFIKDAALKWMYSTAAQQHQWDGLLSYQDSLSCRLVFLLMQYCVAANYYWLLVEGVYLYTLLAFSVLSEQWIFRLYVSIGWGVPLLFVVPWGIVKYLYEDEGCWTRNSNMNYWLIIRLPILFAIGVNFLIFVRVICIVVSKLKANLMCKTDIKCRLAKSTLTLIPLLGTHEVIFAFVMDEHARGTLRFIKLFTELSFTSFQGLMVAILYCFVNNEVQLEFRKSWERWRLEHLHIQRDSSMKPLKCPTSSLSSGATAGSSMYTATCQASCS
Test: cell-based or functional assay
Parameter: cAMP Rel EC50 (in the presence of 1% HSA) (nM)
The response must be a number in nM with no trailing unit.

Below, 2 binders whose answers are already recorded.
YXQGTXTSDXSIXLDKKAQXAFIEYLEEGGPSSGEPPPEGTGE (non-natural residues; lipidated Lys; C-terminal amide; synthetic construct; SITE 2: note = 2-Aminoisobutyric Acid; SITE 6: note = alpha-methyl-2-fluoro-L-phenylalanine; SITE 10: note = 3-(4-Pyridyl)-L-alanine; SITE 13: note = alpha-methyl-leucine; SITE 17: note = Lysine is chemically modified through conjugation of the epsilon-amino group of the Lysine) [Example 628]    79.8
YXQGTXTSDXXIXLDXKAQXEFIEXLIEGGPPSXEPPPEGE (non-natural residues, C-terminal amide, acylated Lys with fatty diacid; synthetic construct; SITE 2: note = 2-Aminoisobutyric Acid; SITE 6: note = alpha-methyl-2-fluoro-L-phenylalanine; SITE 10: note = 3-(4-Pyridyl)-L-alanine; SITE 11: note = alpha-methyl-L-serine; SITE 13: note = alpha-methyl-leucine; SITE 16: note = L-ornithine; SITE 17: note = Lysine is chemically mo) [Example 1190]    77.4

Consider the record given below.
[ask] Item under review: YXQGTXTSDXSIXLDKKAQXAFIEYLAEGGPSSGEPPPSGSEE (non-natural residues; lysine acylated with C18 diacid; C-terminal amide; synthetic construct; SITE 2: note = 2-Aminoisobutyric Acid; SITE 6: note = alpha-methyl-2-fluoro-L-phenylalanine; SITE 10: note = 3-(4-Pyridyl)-L-alanine; SITE 13: note = alpha-methyl-leucine; SITE 17: note = Lysine is chemically modified through conjugation of the epsilon-amino group of the Lysine) [Example 631] . Reported cAMP Rel EC50 (in the presence of 1% HSA)?
[reply] 55
